The reported measurements were obtained from ChEMBL document CHEMBL1156861.

Please respond with reported Ki for every item in the list.

Exam item: Please provide the recorded Ki for `CCCCCc1cc(NS(C)(=O)=O)c2c(c1)OC(C)(C)[C@@H]1CCC(C)=C[C@@H]21` , tested on Cannabinoid receptor 2 (Homo sapiens).
Sequence (P34972 whole entry): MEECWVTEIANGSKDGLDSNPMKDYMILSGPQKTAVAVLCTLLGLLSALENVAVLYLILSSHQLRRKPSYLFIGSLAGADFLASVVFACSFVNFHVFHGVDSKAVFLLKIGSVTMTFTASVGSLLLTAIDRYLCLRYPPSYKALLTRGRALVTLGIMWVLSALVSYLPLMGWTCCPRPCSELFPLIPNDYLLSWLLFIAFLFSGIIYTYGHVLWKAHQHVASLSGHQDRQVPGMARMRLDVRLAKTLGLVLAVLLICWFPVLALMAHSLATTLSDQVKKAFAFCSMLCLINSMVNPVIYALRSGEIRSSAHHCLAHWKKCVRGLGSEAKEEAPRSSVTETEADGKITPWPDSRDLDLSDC
Marked response: 1720 nM

Exam item: Please provide the recorded Ki for `CCCCCc1cc(NC(C)=O)c2c(c1)OC(C)(C)[C@@H]1CCC(C)=C[C@@H]21` , tested on Cannabinoid receptor 2 (Homo sapiens).
Marked response: 1400 nM

Exam item: Please provide the recorded Ki for `CCCCCCC(C)(C)c1cc(NC(=O)c2ccncc2)c2c(c1)OC(C)(C)[C@@H]1CCC(C)=C[C@@H]21` , tested on Cannabinoid receptor 2 (Homo sapiens).
Marked response: 1090 nM

Exam item: Please provide the recorded Ki for `CCCCCc1cc2c(c(C(=O)NC(CO)CO)c1)[C@@H]1C=C(C)CC[C@H]1C(C)(C)O2` , tested on Cannabinoid receptor 2 (Homo sapiens).
Marked response: 2000 nM

Exam item: Please provide the recorded Ki for CCCCCc1cc2c(c([S+](C)[O-])c1)[C@@H]1C=C(C)CC[C@H]1C(C)(C)O2 (single isomer, unassigned; diastereomer B) , tested on Cannabinoid receptor 2 (Homo sapiens).
Marked response: > 3000 nM

Exam item: Please provide the recorded Ki for `CCCCCc1cc(C#N)c2c(c1)OC(C)(C)[C@@H]1CCC(C)=C[C@@H]21` , tested on Cannabinoid receptor 2 (Homo sapiens).
Marked response: 387 nM

Exam item: Please provide the recorded Ki for `CCCCCc1cc(CN)c2c(c1)OC(C)(C)[C@@H]1CCC(C)=C[C@@H]21` , tested on Cannabinoid receptor 2 (Homo sapiens).
Marked response: > 3000 nM

Exam item: Please provide the recorded Ki for `CCCCCc1cc2c(c(C(=O)O)c1)[C@@H]1C=C(C)CC[C@H]1C(C)(C)O2` , tested on Cannabinoid receptor 2 (Homo sapiens).
Marked response: > 3000 nM
